ASSAY OVERVIEW: Selectivity index, ratio of IC50 for rat L6 cells to IC50 for chloroquine-resistant Plasmodium falciparum K1
Assay type: toxicity, cell-based
COND: read-out: Ratio IC50
ASSAY READOUT: selectivity ratio

>  <SMILES STR>
N=C(N)c1ccc(COc2ccccc2)cc1

>  <VALUE>
< 47

$$$$
>  <SMILES STR>
N=C(N)c1cccc(OCc2ccccc2)c1

>  <VALUE>
< 41

$$$$
>  <SMILES STR>
Cl.Cl.N/C(=N\O)c1ccc(COc2ccc(/C(N)=N/O)cc2Br)cc1

>  <VALUE>
< 1

$$$$
>  <SMILES STR>
CO/N=C(\N)c1ccc(COc2ccc(/C(N)=N/OC)cc2Br)cc1.Cl.Cl

>  <VALUE>
< 10

$$$$
>  <SMILES STR>
N=C(N)c1cccc(COc2cccc([N+](=O)[O-])c2)c1

>  <VALUE>
< 34

$$$$
>  <SMILES STR>
N=C(N)c1ccc(COc2ccc([N+](=O)[O-])cc2)cc1

>  <VALUE>
< 26

$$$$
>  <SMILES STR>
COc1cc(/C(N)=N/O)cc(OC)c1OCc1cccc(/C(N)=N/O)c1.Cl.Cl

>  <VALUE>
< 6

$$$$
>  <SMILES STR>
N=C(N)c1ccc(OCc2cccc(C(=N)N)c2)cc1

>  <VALUE>
168

$$$$
>  <SMILES STR>
Cl.Cl.N=C(N)c1cccc(COc2ccc(C(=N)N)cc2[N+](=O)[O-])c1

>  <VALUE>
592

$$$$
>  <SMILES STR>
N=C(N)c1ccc(COc2c(I)cc(C(=N)N)cc2I)cc1

>  <VALUE>
746

$$$$
>  <SMILES STR>
COc1cc(/C(N)=N/O)cc(I)c1OCc1cccc(/C(N)=N/O)c1.Cl.Cl

>  <VALUE>
< 3

$$$$
>  <SMILES STR>
N=C(N)c1ccc(COc2ccc(C(=N)N)cc2I)cc1

>  <VALUE>
898

$$$$
>  <SMILES STR>
COc1cc(C(=N)N)ccc1OCc1cccc(C(=N)N)c1

>  <VALUE>
2760

$$$$
>  <SMILES STR>
N=C(N)c1cccc(COc2c(I)cc(C(=N)N)cc2I)c1

>  <VALUE>
291

$$$$
>  <SMILES STR>
COc1cc(/C(N)=N/O)cc(Br)c1OCc1cccc(/C(N)=N/O)c1.Cl.Cl

>  <VALUE>
< 3

$$$$
>  <SMILES STR>
CO/N=C(\N)c1ccc(COc2ccc(/C(N)=N/OC)cc2I)cc1.Cl.Cl

>  <VALUE>
< 8

$$$$
>  <SMILES STR>
Cl.Cl.N/C(=N\O)c1cccc(COc2ccc(/C(N)=N/O)cc2I)c1

>  <VALUE>
< 1

$$$$
>  <SMILES STR>
COc1cc(/C(N)=N/O)cc(OC)c1OCc1ccc(/C(N)=N/O)cc1.Cl.Cl

>  <VALUE>
5.11

$$$$

* * *

ASSAY OVERVIEW: Selectivity index, ratio of IC50 for rat L6 cells to IC50 for Trypanosoma brucei rhodesiense STIB900
Assay type: toxicity, cell-based
COND: read-out: Ratio IC50
ASSAY READOUT: selectivity ratio

>  <SMILES STR>
CC(C)NC(=N)c1ccc(COc2ccc(C(=N)NC(C)C)cc2)cc1

>  <ASSAY READOUT>
selectivity ratio

>  <VALUE>
> 107

$$$$
>  <SMILES STR>
CO/N=C(\N)c1cccc(COc2c(OC)cc(/C(N)=N/OC)cc2OC)c1.Cl.Cl

>  <ASSAY READOUT>
selectivity ratio

>  <VALUE>
> 1

$$$$
>  <SMILES STR>
N=C(N)c1ccc(COc2ccc(N)cc2)cc1

>  <ASSAY READOUT>
selectivity ratio

>  <VALUE>
> 90

$$$$
